# Test system: Escherichia coli TOP10
# EXPERIMENT: shrunken log2 fold change of peptide-encoding DNA abundance (4.5 h post-induction vs induction); higher = less antimicrobial activity (less host growth inhibition)
# CONDITION_DESCRIPTION: time post-induction: 4.5 h; library: site-saturation at positions 5, 18, 19, 20
So basically, the class depends on measured shrunken log2 fold change, and the ranges are label 0: < -0.1; label 1: ≥ -0.1 and < -0.01; label 2: ≥ -0.01

Task: Form: Item = RRIRARPPRLPRPRPRPYHAPRP ; Class = ?
Result: label 1

Task: Follow-up entry: RRIRPRPPRLPRPRPRPIADPRP
Result: label 2

Task: Follow-up entry: RRIRPRPPRLPRPRPRPGDSPRP
Result: label 2

Task: Follow-up entry: RRIRLRPPRLPRPRPRPQQEPRP
Result: label 2

Task: Follow-up entry: RRIRNRPPRLPRPRPRPPLMPRP
Result: label 1

Task: Follow-up entry: RRIRGRPPRLPRPRPRPHTPPRP
Result: label 2

Task: Follow-up entry: RRIRPRPPRLPRPRPRPLSIPRP
Result: label 0

Task: Follow-up entry: RRIRHRPPRLPRPRPRPAEHPRP
Result: label 0

---

# Test system: Escherichia coli TOP10
# EXPERIMENT: shrunken log2 fold change of peptide-encoding DNA abundance (4.5 h post-induction vs induction); higher = less antimicrobial activity (less host growth inhibition)
# CONDITION_DESCRIPTION: time post-induction: 4.5 h; library: site-saturation at positions 5, 18, 19, 20
Listed here are sequences together with their documented shrunken log2 fold change.
Form field (numeric): enter value without unit.

Example entries begin here.
{"QUERY_SEQUENCE": "RRIRMRPPRLPRPRPRPTNTPRP", "shrunken log2 fold change": 0.176}
{"QUERY_SEQUENCE": "RRIRRRPPRLPRPRPRPYHYPRP", "shrunken log2 fold change": -0.717}
{"QUERY_SEQUENCE": "RRIRVRPPRLPRPRPRPMPTPRP", "shrunken log2 fold change": 0.282}
{"QUERY_SEQUENCE": "RRIRFRPPRLPRPRPRPPQCPRP", "shrunken log2 fold change": 0.237}
{"QUERY_SEQUENCE": "RRIRPRPPRLPRPRPRPRTPPRP", "shrunken log2 fold change": 0.536}
{"QUERY_SEQUENCE": "RRIRARPPRLPRPRPRPMYQPRP", "shrunken log2 fold change": -0.21}

Then there is this sequence:
Task: What reported shrunken log2 fold change corresponds to RRIRKRPPRLPRPRPRPWRMPRP on Escherichia coli TOP10?
Result: 0.0773

---

# Test system: Escherichia coli TOP10
# EXPERIMENT: shrunken log2 fold change of peptide-encoding DNA abundance (4.5 h post-induction vs induction); higher = less antimicrobial activity (less host growth inhibition)
# CONDITION_DESCRIPTION: time post-induction: 4.5 h; library: site-saturation at positions 5, 18, 19, 20
So basically, the class depends on measured shrunken log2 fold change, and the ranges are label 0: < -0.1; label 1: ≥ -0.1 and < 0.1; label 2: ≥ 0.1

{"QUERY_SEQUENCE": "RRIRCRPPRLPRPRPRPIEQPRP", "DISCRETE_LABEL": "label 1"}

Task: Form: Item = RRIRERPPRLPRPRPRPAICPRP ; Class = ?
Result: label 0

Task: Follow-up entry: RRIRYRPPRLPRPRPRPNIYPRP
Result: label 0

Task: Follow-up entry: RRIRHRPPRLPRPRPRPQNFPRP
Result: label 0

Task: Follow-up entry: RRIRNRPPRLPRPRPRPFRCPRP
Result: label 1

Task: Follow-up entry: RRIRGRPPRLPRPRPRPMAAPRP
Result: label 2

Task: Follow-up entry: RRIRNRPPRLPRPRPRPTVWPRP
Result: label 2

Task: Follow-up entry: RRIRKRPPRLPRPRPRPGMMPRP
Result: label 2

Task: Follow-up entry: RRIRVRPPRLPRPRPRPRTSPRP
Result: label 1

Task: Follow-up entry: RRIRGRPPRLPRPRPRPMHRPRP
Result: label 2

---

Listed here are sequences together with their documented shrunken log2 fold change.
# Tested on: Escherichia coli TOP10
# EXPERIMENT: shrunken log2 fold change of peptide-encoding DNA abundance (4.5 h post-induction vs induction); higher = less antimicrobial activity (less host growth inhibition)
# CONDITION_DESCRIPTION: time post-induction: 4.5 h; library: site-saturation at positions 5, 18, 19, 20
Form field (numeric): enter value without unit.

{"QUERY_SEQUENCE": "RRIRARPPRLPRPRPRPHVYPRP", "READING": -0.0492}
{"QUERY_SEQUENCE": "RRIRERPPRLPRPRPRPSAKPRP", "READING": 0.0244}
{"QUERY_SEQUENCE": "RRIRIRPPRLPRPRPRPDTIPRP", "READING": -0.0883}
{"QUERY_SEQUENCE": "RRIRWRPPRLPRPRPRPWLWPRP", "READING": 0.242}

Task: What reported shrunken log2 fold change corresponds to RRIRSRPPRLPRPRPRPKSRPRP on Escherichia coli TOP10?
Result: -0.0201

---

Listed here are sequences together with their documented shrunken log2 fold change.
# Tested on: Escherichia coli TOP10
# EXPERIMENT: shrunken log2 fold change of peptide-encoding DNA abundance (4.5 h post-induction vs induction); higher = less antimicrobial activity (less host growth inhibition)
# CONDITION_DESCRIPTION: time post-induction: 4.5 h; library: site-saturation at positions 5, 18, 19, 20
Form field (numeric): enter value without unit.

{"QUERY_SEQUENCE": "RRIRNRPPRLPRPRPRPKHAPRP", "shrunken log2 fold change": 0.0877}
{"QUERY_SEQUENCE": "RRIRERPPRLPRPRPRPHDMPRP", "shrunken log2 fold change": -0.0911}
{"QUERY_SEQUENCE": "RRIRARPPRLPRPRPRPTIQPRP", "shrunken log2 fold change": 0.0396}
{"QUERY_SEQUENCE": "RRIRNRPPRLPRPRPRPVKAPRP", "shrunken log2 fold change": -0.0518}
{"QUERY_SEQUENCE": "RRIRMRPPRLPRPRPRPAYAPRP", "shrunken log2 fold change": 0.0769}
{"QUERY_SEQUENCE": "RRIRPRPPRLPRPRPRPTTPPRP", "shrunken log2 fold change": 0.322}

Task: Entry RRIRSRPPRLPRPRPRPKAGPRP : reported shrunken log2 fold change = ?
Result: 0.19

Task: Follow-up entry: RRIRIRPPRLPRPRPRPYYQPRP
Result: -0.296

Task: Follow-up entry: RRIRYRPPRLPRPRPRPPGHPRP
Result: -0.337

---

# Test system: Escherichia coli TOP10
# EXPERIMENT: shrunken log2 fold change of peptide-encoding DNA abundance (4.5 h post-induction vs induction); higher = less antimicrobial activity (less host growth inhibition)
# CONDITION_DESCRIPTION: time post-induction: 4.5 h; library: site-saturation at positions 5, 18, 19, 20
Listed here are sequences together with their documented shrunken log2 fold change.

{"QUERY_SEQUENCE": "RRIRQRPPRLPRPRPRPRATPRP", "MEASURED_PROPERTY": "shrunken log2 fold change", "READING": 0.138}
{"QUERY_SEQUENCE": "RRIRKRPPRLPRPRPRPMNHPRP", "MEASURED_PROPERTY": "shrunken log2 fold change", "READING": 0.395}
{"QUERY_SEQUENCE": "RRIRCRPPRLPRPRPRPSQKPRP", "MEASURED_PROPERTY": "shrunken log2 fold change", "READING": -0.169}
{"QUERY_SEQUENCE": "RRIRCRPPRLPRPRPRPTCEPRP", "MEASURED_PROPERTY": "shrunken log2 fold change", "READING": 0.142}
{"QUERY_SEQUENCE": "RRIRCRPPRLPRPRPRPHSYPRP", "MEASURED_PROPERTY": "shrunken log2 fold change", "READING": -0.272}

Task: Entry RRIRKRPPRLPRPRPRPFFPPRP : reported shrunken log2 fold change = ?
Result: 0.967

Task: Follow-up entry: RRIRERPPRLPRPRPRPWLGPRP
Result: -0.247

Task: Follow-up entry: RRIRQRPPRLPRPRPRPHCQPRP
Result: -0.39

Task: Follow-up entry: RRIRNRPPRLPRPRPRPPFTPRP
Result: 0.0907

Task: Follow-up entry: RRIRTRPPRLPRPRPRPDEFPRP
Result: -0.00523

---

# Test system: Escherichia coli TOP10;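 further: peptides expressed intracellularly from a pBAD plasmid library in pooled LB shake-flask culture, induced with 0.3% L-arabinose, DNA abundance read by NGS, three biological replicates, DESeq2 with apeglm shrinkage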
# EXPERIMENT: shrunken log2 fold change of peptide-encoding DNA abundance (4.5 h post-induction vs induction); higher = less antimicrobial activity (less host growth inhibition)
# CONDITION_DESCRIPTION: time post-induction: 4.5 h; library: site-saturation at positions 5, 18, 19, 20
Mark FALSE for shrunken log2 fold change values under -0.04, and TRUE for everything at or above.

{"QUERY_SEQUENCE": "RRIRERPPRLPRPRPRPHCNPRP", "SYSTEM_TESTED": "Escherichia coli TOP10", "DISCRETE_LABEL": "FALSE"}
{"QUERY_SEQUENCE": "RRIRCRPPRLPRPRPRPPPDPRP", "SYSTEM_TESTED": "Escherichia coli TOP10", "DISCRETE_LABEL": "TRUE"}
{"QUERY_SEQUENCE": "RRIRERPPRLPRPRPRPQEWPRP", "SYSTEM_TESTED": "Escherichia coli TOP10", "DISCRETE_LABEL": "TRUE"}
{"QUERY_SEQUENCE": "RRIRSRPPRLPRPRPRPLQNPRP", "SYSTEM_TESTED": "Escherichia coli TOP10", "DISCRETE_LABEL": "TRUE"}
{"QUERY_SEQUENCE": "RRIRDRPPRLPRPRPRPGCGPRP", "SYSTEM_TESTED": "Escherichia coli TOP10", "DISCRETE_LABEL": "TRUE"}

Okay, now this sequence:
Task: Would you say RRIRKRPPRLPRPRPRPGDIPRP shows shrunken log2 fold change at minimum -0.04?
Result: FALSE
